- target: natriuretic peptide receptor on C3H10T1/2 cells
- assay: cell-based or functional assay
The label depends only on % relative binding (cGMP, Biotrak EIA, peptide at 10^-6 M): true if it is at least 6%, false if it is smaller.

Does % relative binding (cGMP, Biotrak EIA, peptide at 10^-6 M) meet or surpass 6% for CHGLKLDRIGSMSGLGC [CNP variant SEQ ID NO:33] ?
false

Does % relative binding (cGMP, Biotrak EIA, peptide at 10^-6 M) meet or surpass 6% for CFGLKVDRIGSMSGLGC [CNP variant SEQ ID NO:47] ?
true

Does % relative binding (cGMP, Biotrak EIA, peptide at 10^-6 M) meet or surpass 6% for CLGLKLDRIGSMSGLGC [CNP variant SEQ ID NO:29] ?
true

Does % relative binding (cGMP, Biotrak EIA, peptide at 10^-6 M) meet or surpass 6% for CFGLKLDRIGSHSGLGC [CNP variant SEQ ID NO:66] ?
true

Does % relative binding (cGMP, Biotrak EIA, peptide at 10^-6 M) meet or surpass 6% for CVGLKLDRIGSMSGLGC [CNP variant SEQ ID NO:32] ?
false

Does % relative binding (cGMP, Biotrak EIA, peptide at 10^-6 M) meet or surpass 6% for CFGLKLDHIGSMSGLGC [CNP variant SEQ ID NO:48] ?
true

Does % relative binding (cGMP, Biotrak EIA, peptide at 10^-6 M) meet or surpass 6% for CFGAKLDRIGSMSGLGC [CNP variant SEQ ID NO:40] ?
true

Reference source for all entries: patent US20040138134A1
